species: Homo sapiens; experiment: To identify inhibition of the IFN signalling (Jak-Stat) pathway via expression of an eGFP reporter gene under the control of an IFN-stimulated response element (ISRE) containing MxA promoter.; assay type: functional; design: scale not given: direction of the effect not stated beside the values; conditions: 30 µM
Reported Percent Effect values for a set of compounds

// worked examples, Percent Effect included
{"columns": ["compound", "Percent Effect"],
 "data": [
  ["CCc1nc(C)c([C@H]2CN(C)C[C@@H]2C(=O)NCCc2cnccn2)[nH]1", "3.41%"],
  ["Cc1nc(CN2CCOCC3(CCN(c4cccnc4)CC3)C2)cs1", "4.77%"],
  ["CCc1nc(C2CCCN2C(=O)c2nccnc2N)no1 (centres undefined)", "-2.29%"],
  ["CCn1cc(CN2CCCN(C(=O)C3=NN(C)C(=O)CC3)CC2)cn1", "29.5%"],
  ["O=S(=O)(CCNCc1ccc2c(c1)CCO2)N1CCOCC1", "-0.791%"],
  ["Cc1ccc(CN(C)C(=O)CN2CCCC2Cn2cccn2)o1 (centres undefined)", "-5.92%"]
]}

Request: Write down Percent Effect measured for item O=C(NCCN1CCC(c2cccs2)CC1)Nc1cccs1
Response: 10.4%

Request: Write down Percent Effect measured for item Cc1cc(C)n(C2CCCN(C(=O)COCC(F)(F)F)C2)n1 (centres undefined)
Response: -11.3%

Request: Write down Percent Effect measured for item CCOc1ccc(Cl)c(C(=O)N(C)C)n1
Response: 30.8%

Request: Write down Percent Effect measured for item Cc1cc(CN(C)C(=O)NCC(C)N2CCc3ccccc32)no1 (centres undefined)
Response: -9.63%

Request: Write down Percent Effect measured for item O=C(c1ccno1)N1CCC2(CC1)C(=O)N(CC1CC1)c1ccccc12
Response: 5.14%

Request: Write down Percent Effect measured for item O=C(c1ccccn1)N1CCN(c2ccc(-c3cccnc3)nn2)CC1
Response: 1.87%

Request: Write down Percent Effect measured for item O=C(c1ccc[nH]1)N1CCCC(c2cc(C(F)(F)F)[nH]n2)C1 (centres undefined)
Response: 35.6%

Request: Write down Percent Effect measured for item CC(NC1(CNC(=O)C(C)(C)C#N)CCOCC1)c1ccccc1 (centres undefined)
Response: 7%

Request: Write down Percent Effect measured for item Cn1cc(CNCCOc2ccc(F)c(F)c2)c(-c2cccnc2)n1
Response: 7.57%

Request: Write down Percent Effect measured for item Cc1nc(CCC(=O)NC2CCC2)cc(C2CCNCC2)n1
Response: 3.41%

Request: Write down Percent Effect measured for item c1nc2c(c(C3CC3)n1)CCN(Cc1ccoc1)CC2
Response: 5.88%

Request: Write down Percent Effect measured for item Cc1cc(=O)n(CC(=O)NCC2CCCO2)c(-c2ccc(F)cc2)n1 (centres undefined)
Response: 22.5%

Request: Write down Percent Effect measured for item CC(C)c1noc(CCCC(=O)NC2CCS(=O)(=O)C2)n1 (centres undefined)
Response: 8.49%

Request: Write down Percent Effect measured for item CC1CCCCN1Cc1ccc(-c2ccccc2C(=O)O)cc1 (centres undefined)
Response: 12.3%

----------
Molecular target: Ubiquitin-activating enzyme e1, putative (Leishmania donovani (strain BPK282A1))
Sequence (whole entry): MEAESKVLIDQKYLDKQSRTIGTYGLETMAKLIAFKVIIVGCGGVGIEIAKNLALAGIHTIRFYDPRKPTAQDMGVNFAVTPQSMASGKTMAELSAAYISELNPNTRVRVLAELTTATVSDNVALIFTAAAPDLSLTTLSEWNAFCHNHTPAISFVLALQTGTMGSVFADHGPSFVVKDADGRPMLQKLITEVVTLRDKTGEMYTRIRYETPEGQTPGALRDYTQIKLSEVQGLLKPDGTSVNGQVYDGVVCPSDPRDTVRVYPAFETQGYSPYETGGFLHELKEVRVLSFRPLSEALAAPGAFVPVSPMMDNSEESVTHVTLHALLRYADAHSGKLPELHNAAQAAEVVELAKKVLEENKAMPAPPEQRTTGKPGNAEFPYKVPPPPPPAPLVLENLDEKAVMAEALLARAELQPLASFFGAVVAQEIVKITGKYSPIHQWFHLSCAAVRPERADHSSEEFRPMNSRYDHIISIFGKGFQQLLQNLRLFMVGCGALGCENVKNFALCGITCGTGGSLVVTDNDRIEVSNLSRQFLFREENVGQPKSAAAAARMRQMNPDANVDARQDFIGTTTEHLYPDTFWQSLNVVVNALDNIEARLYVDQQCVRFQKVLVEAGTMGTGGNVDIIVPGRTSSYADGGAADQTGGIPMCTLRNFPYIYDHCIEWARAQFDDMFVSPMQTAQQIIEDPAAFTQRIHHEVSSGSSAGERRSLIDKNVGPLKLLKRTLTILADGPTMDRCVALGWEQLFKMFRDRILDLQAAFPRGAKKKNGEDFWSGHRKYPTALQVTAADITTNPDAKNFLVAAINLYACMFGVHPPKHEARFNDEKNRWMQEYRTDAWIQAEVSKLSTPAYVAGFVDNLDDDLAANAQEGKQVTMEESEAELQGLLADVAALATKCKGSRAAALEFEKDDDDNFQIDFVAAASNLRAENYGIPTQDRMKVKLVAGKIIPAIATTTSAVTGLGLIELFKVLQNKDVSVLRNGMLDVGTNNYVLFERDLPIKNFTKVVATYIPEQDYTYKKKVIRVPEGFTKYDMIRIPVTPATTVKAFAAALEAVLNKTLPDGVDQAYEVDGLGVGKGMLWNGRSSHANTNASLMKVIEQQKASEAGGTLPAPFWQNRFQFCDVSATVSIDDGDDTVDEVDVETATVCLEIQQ
Test: Leishmania donovani Ubiquitin Activating Enzyme (LdE1)
Type: functional
Design: scale not given: direction of the effect not stated beside the values
Conditions: 30 µM
Potency and affinity values are given separately.
Just a reminder that ties go to not met: only Percent Effect strictly below 9% counts as met.

{"columns": ["molecule", "group-label"],
 "data": [
  ["Cc1cccc2nc(C(=O)N3CCC(Nc4cccnn4)CC3)cn12", "met"],
  ["CCn1cnnc1CNC(=O)N(C)Cc1ccc(F)c(F)c1", "not met"],
  ["Cc1nc(C)n(CC2CCCN2Cc2nc(N)c3ccccc3n2)n1 (stereo unspecified)", "not met"],
  ["CO[C@H]1CCN(c2ncccn2)[C@H]1Cc1ccccc1", "met"]
]}

Proceed to the following item.
Request: Check if Percent Effect falls below 9% for CCNC(=O)CCN1CCC(c2cc(N3CCOCC3)nc(C)n2)CC1 .
Response: met
